# Tested on: rats dosed cholic acid
# test_summary: Lowering effect on bile acid concentrations in portal vein blood in rats dosed cholic acid
# Type: in vivo, rat
# experimental_parameters: 0.1 mg/kg oral; surfactant HCO-60 0.1%; cholic acid 200 mg/kg; portal vein blood 2 hours after administration
Exercise: for every item that follows, state its recorded BILE ACID REDUCTION RATE (%) IN RAT MODEL WITH CHOLIC ACID LOADING.
Give bare numbers, in %.

molecule | target_desc | unit_of_measure | observed_result
CCCCC1(CCCC)CS(=O)(=O)c2ccc(N(C)C)cc2C(c2cccc(NC(=S)Nc3ccc(C[N+]45CCC(CC4)CC5)cc3)c2)N1.[Br-] (racemic) | rats dosed cholic acid | % | 23
CCCCC1(CCCC)CS(=O)(=O)c2ccc(N(C)C)cc2C(c2cccc(NC(=S)Nc3ccc(C[N+](C)(C)Cc4ccccc4)cc3)c2)N1.[Br-] (stereo not drawn) | rats dosed cholic acid | % | 26
CCCCC1(CCCC)CS(=O)(=O)c2ccc(N(C)C)cc2C(c2cccc(NC(=S)Nc3ccc(C[N+]4(Cc5ccccc5)CCC(CCO)CC4)cc3)c2)N1.[Br-] (stereo not drawn) | rats dosed cholic acid | % | 43
CCCCC1(CCCC)CS(=O)(=O)c2ccc(N(C)C)cc2C(c2cccc(NC(=S)Nc3ccc(C[N+]4(Cc5ccccc5)CCCC(CO)C4)cc3)c2)N1.[Br-] (stereo not drawn) | rats dosed cholic acid | % | 36
CCCCC1(CCCC)CS(=O)(=O)c2ccc(N(C)C)cc2C(c2cccc(NC(=S)NCCCC[N+](C)(C)Cc3ccccc3)c2)N1.[Br-] (stereo not drawn) | rats dosed cholic acid | % | 33

# next molecule below
Exercise: Could you share which BILE ACID REDUCTION RATE (%) IN RAT MODEL WITH CHOLIC ACID LOADING value was measured for CCCCC1(CCCC)CS(=O)(=O)c2ccc(N(C)C)cc2C(c2cccc(NC(=S)CCCCC[N+]34CCC(c5ccccc5)(CC3)CC4)c2)N1.[Br-] (stereo not drawn) ?
Solution: 36

----------
# target_desc: UniProt Q12908
# Sequence (Q12908 whole entry): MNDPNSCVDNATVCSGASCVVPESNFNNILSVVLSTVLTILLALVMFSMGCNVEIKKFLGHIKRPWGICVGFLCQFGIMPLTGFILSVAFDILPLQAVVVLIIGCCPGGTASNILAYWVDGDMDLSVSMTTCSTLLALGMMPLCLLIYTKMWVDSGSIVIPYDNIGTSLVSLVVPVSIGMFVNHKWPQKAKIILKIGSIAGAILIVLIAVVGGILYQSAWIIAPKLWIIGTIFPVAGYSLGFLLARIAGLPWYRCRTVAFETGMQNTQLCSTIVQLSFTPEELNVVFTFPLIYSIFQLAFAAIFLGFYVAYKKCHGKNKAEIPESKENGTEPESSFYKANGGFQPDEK
# test_summary: In vitro assay using Cos 7 cells, transiently expressed human IBAT
# Type: cell-based
# experimental_parameters: [3H]-taurocholate 8 μM, 37° C., 60 minutes
parameter: IC50 (nM)
Answers are plain numbers, in nM.

A selection of reference data follows.
molecule | target_desc | unit_of_measure | IC50
CCCCC1(CCCC)CS(=O)(=O)c2ccc(N(C)C)cc2C(c2cccc(NC(=S)Nc3ccc(C[N+]45CCC(c6ccccc6)(CC4)CC5)c(C)c3)c2)N1.[Br-] (stereo not drawn) | UniProt Q12908 | nM | 22
CCCCC1(CCCC)CS(=O)(=O)c2ccc(N(C)C)cc2C(c2cccc(NC(=S)Nc3ccc(C[n+]4ccc(C(C)(C)C)cc4)c(C)c3)c2)N1.[Br-] (stereo not drawn) | UniProt Q12908 | nM | 47

Would you kindly look at the next entry?
Exercise: So what does the record say about IC50 for CCCCC1(CCCC)CS(=O)(=O)c2ccc(N(C)C)cc2C(c2cccc(NC(=S)Nc3ccc(C[n+]4ccccc4OCC)cc3)c2)N1 (racemic) ?
Solution: 44

----------
# Tested on: Caco-2 cell
# test_summary: Gastrointestinal toxicity: cytotoxicity against Caco-2 cell (LDH activity)
# Assay type: cell-based, human
# experimental_parameters: 30 μM, 2 hours; LDH activity in medium relative to cell lysis agent = 100%
Give CELL TOXICITY AGAINST Caco2 30 μM for every item shown.

Previously resolved entries follow.
molecule | CELL TOXICITY AGAINST Caco2 30 μM
CCCCC1(CCCC)CS(=O)(=O)c2ccc(N(C)C)cc2C(c2cccc(NC(=S)Nc3ccc(C[N+]45CCC(c6ccccc6)(CC4)CC5)cc3C)c2)N1.[Br-] (stereo not drawn) | <1%
CCCCC1(CCCC)CS(=O)(=O)c2ccc(N(C)C)cc2C(c2cccc(NC(=S)CCCCC[N+](C)(C)Cc3ccccc3)c2)N1.[Br-] (stereo not drawn) | <1%

Exercise: Find the recorded CELL TOXICITY AGAINST Caco2 30 μM belonging to CCCCC1(CCCC)CS(=O)(=O)c2ccc(N(C)C)cc2C(c2cccc(NC(=S)Nc3ccc(C[n+]4ccc(C(C)(C)C)cc4)cc3)c2)N1.[Br-] (stereo not drawn) and report it.
Solution: <1%

Data credit: patent US20120015925A1
